- testedTarget: hRORγt (Homo sapiens)
- Construct: expressed in transfected cells; host or cells: CHO-S (Chinese hamster ovary cells, Invitrogen R80007), transiently transfected with pM-hRORγt and pG5-luc
- Sequence (P51449 1-497 isoform P51449-2): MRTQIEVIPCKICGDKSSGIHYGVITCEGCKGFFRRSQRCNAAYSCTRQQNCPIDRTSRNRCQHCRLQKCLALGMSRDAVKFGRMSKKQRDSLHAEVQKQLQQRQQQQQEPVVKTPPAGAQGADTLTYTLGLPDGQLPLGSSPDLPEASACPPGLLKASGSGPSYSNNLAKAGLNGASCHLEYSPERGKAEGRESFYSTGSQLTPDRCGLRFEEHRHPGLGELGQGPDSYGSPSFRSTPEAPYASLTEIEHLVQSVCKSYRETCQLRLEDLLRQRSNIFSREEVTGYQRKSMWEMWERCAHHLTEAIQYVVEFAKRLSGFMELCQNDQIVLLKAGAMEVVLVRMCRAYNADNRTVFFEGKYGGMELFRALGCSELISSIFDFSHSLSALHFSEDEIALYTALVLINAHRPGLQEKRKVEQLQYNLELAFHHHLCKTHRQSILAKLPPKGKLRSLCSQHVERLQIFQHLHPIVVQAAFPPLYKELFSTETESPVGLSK
- experimentDescription: Luciferase assay (reporter gene, recombinant plasmid hRORγt)
- Type: cell-based
- reportedConditions: CHO-S cells transfected with pM-hRORγt and pG5-luc; overnight culture with compound; ONE-Glo luciferase readout; read-out: RORgt EC50
Kindly apply the following: rule met if EC50 is less than 20000 pM, rule not met in every other case.

Known results for compounds:
{"columns": ["compound", "classification"],
 "data": [
  ["CCc1ccc2c(c1)CCC(CC)N2S(=O)(=O)c1ccc(C(O)CN2CCOCC2)c(CO)c1 (stereo not drawn)", "rule not met"],
  ["CCc1ccc2c(c1)CC[C@@H](CC)N2S(=O)(=O)c1ccc(OCC2CCOCC2)c(CO)c1", "rule met"],
  ["CCc1ccc2c(c1)CC(C)CN2S(=O)(=O)c1ccc(OCC2CCOCC2)c(CO)c1 (stereo not drawn)", "rule not met"],
  ["CC[C@@H]1CCc2cc(C(C)(F)F)ccc2N1S(=O)(=O)c1ccc(OCC2CCOCC2)c(CO)c1", "rule met"],
  ["CCc1ccc2c(c1)CCC(CC)N2S(=O)(=O)c1ccc(C(O)CC2CCOCC2)c(CO)c1 (stereo not drawn)", "rule not met"],
  ["CCc1ccc2c(c1)CC[C@@H](C)N2S(=O)(=O)c1ccc(OCC2CCOCC2)c(CO)c1", "rule not met"],
  ["CCc1cc2c(cc1F)N(S(=O)(=O)c1ccc(OCC3CCOCC3)c(CO)c1)[C@@H](C)CC2", "rule not met"],
  ["CCC1CCc2cc(CC(F)(F)F)ccc2N1S(=O)(=O)c1ccc(OCC2CCOCC2)c(CO)c1 (stereo not drawn)", "rule not met"]
]}

INPUT: Lab note: confirm whether the reported EC50 for this compound is below 20000 pM, equality not counting. compound: `CCc1ccc2c(c1)CC[C@@H](C1CC1)N2S(=O)(=O)c1ccc(OCC2CCOCC2)c(CO)c1`
OUTPUT: rule met
